# collection of pKi values tested on Glutamate receptor ionotropic, kainate 1 (Rattus norvegicus)
pKi: −log10 of the molar value.
VALUE KIND: pKi

1. N[C@@H](Cn1cc(I)c(=O)[nH]c1=O)C(=O)O ... 8.62
2. N[C@@H](Cn1c2c(c(=O)[nH]c1=O)CCC2)C(=O)O ... 7.36
3. CC1(C)Cc2c(n(C[C@H](N)C(=O)O)c(=O)[nH]c2=O)C1 ... 6.01

###

Biological target: Glutamate receptor ionotropic, kainate 1 (Rattus norvegicus, UniProt P22756)
Sequence (P22756 whole entry): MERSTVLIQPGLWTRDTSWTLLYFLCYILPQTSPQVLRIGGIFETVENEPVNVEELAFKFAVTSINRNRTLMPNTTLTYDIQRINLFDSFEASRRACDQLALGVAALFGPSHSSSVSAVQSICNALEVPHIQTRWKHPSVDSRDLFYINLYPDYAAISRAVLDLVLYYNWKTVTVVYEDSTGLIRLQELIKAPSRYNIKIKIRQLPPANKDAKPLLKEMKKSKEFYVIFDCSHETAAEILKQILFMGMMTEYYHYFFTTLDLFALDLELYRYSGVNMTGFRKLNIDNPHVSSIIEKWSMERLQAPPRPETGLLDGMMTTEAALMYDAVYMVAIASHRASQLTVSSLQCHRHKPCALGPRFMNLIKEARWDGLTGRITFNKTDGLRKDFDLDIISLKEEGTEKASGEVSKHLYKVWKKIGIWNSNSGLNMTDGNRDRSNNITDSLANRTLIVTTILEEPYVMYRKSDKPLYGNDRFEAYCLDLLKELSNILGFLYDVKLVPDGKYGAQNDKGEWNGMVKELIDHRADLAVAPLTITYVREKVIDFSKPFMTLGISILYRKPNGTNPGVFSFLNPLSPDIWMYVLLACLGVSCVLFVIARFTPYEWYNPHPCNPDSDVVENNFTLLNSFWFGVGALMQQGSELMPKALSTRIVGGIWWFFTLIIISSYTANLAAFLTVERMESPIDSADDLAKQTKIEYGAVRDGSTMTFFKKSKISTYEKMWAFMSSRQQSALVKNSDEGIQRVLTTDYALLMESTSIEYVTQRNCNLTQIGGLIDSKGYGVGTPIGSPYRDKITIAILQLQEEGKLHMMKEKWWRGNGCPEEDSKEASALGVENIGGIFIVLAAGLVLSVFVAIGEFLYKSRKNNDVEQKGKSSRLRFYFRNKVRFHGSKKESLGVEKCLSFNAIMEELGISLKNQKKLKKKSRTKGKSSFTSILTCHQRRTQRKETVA
Test: biochemical
pIC50: −log10 of the molar value.
VALUE KIND: pIC50

1. N[C@@H](Cn1c2c(c(=O)[nH]c1=O)CSC2)C(=O)O ... 8.28

###

Target: Glutamate receptor 2 (Rattus norvegicus)
VALUE KIND: EC50 (µM)

1) N[C@@H](Cn1c(=O)[nH]c(=O)c2sccc21)C(=O)O ... 11.8

###

Target: Glutamate receptor 1 (Homo sapiens, UniProt P42261)
Sequence (P42261 whole entry): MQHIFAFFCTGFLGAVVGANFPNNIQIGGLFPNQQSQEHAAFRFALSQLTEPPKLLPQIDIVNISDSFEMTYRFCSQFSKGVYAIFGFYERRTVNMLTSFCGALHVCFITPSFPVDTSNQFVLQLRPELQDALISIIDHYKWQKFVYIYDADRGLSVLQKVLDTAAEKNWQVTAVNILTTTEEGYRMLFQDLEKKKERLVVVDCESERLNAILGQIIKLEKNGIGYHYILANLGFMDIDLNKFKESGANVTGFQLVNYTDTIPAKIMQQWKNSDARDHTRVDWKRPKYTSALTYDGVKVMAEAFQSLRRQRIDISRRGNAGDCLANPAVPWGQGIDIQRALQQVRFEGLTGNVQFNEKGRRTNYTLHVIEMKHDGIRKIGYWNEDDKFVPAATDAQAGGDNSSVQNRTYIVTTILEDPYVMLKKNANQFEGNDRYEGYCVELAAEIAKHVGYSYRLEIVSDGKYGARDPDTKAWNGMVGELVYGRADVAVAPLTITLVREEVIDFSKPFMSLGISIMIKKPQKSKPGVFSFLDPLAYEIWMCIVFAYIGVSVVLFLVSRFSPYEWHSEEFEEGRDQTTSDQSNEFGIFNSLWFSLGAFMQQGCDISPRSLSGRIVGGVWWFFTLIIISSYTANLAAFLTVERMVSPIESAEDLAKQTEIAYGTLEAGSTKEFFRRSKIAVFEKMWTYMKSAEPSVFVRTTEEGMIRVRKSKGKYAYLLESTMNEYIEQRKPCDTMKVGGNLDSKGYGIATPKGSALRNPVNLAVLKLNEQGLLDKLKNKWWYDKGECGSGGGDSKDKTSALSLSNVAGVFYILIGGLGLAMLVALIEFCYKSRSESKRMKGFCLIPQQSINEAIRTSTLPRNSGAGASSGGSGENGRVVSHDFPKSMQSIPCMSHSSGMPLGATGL
Assay: Agonist activity at cyclothiazide-desensitized human flip iGluR1 expressed in CHO-K1 cells by whole cell patch-clamp method
Catalogue of compounds with associated EC50
VALUE KIND: EC50

1) N[C@@H](Cn1c(=O)[nH]c(=O)c2sccc21)C(=O)O ... 4.1 µM
2) N[C@@H](Cn1c2c(c(=O)[nH]c1=O)CSC2)C(=O)O ... 18.5 µM

###

Target: Glutamate receptor 1 (Homo sapiens, UniProt P42261)
Assay: Antagonist activity at human flip iGluR1 expressed in CHO-K1 cells by whole cell patch-clamp method
pIC50: −log10 of the molar value.
VALUE KIND: pIC50

1) N[C@@H](Cn1c(=O)[nH]c(=O)c2sccc21)C(=O)O ... 6.43

###

Here's a batch of compounds along with measured Ki for Glutamate receptor 1 (Rattus norvegicus).
VALUE KIND: Ki (nM)

1. N[C@@H](Cn1c2c(c(=O)[nH]c1=O)CSC2)C(=O)O ... 58
2. N[C@@H](Cn1cc(F)c(=O)[nH]c1=O)C(=O)O ... 2.9
3. N[C@@H](Cn1c(=O)[nH]c(=O)c2cocc21)C(=O)O ... 35200
4. N[C@H](Cn1c2c(c(=O)[nH]c1=O)CCC2)C(=O)O ... 10400
5. N[C@@H](Cn1cc(Cl)c(=O)[nH]c1=O)C(=O)O ... 37
6. N[C@@H](Cn1cc(I)c(=O)[nH]c1=O)C(=O)O ... 83
7. N[C@@H](Cn1c(=O)[nH]c(=O)c2sccc21)C(=O)O ... 50
8. N[C@@H](Cn1c2c(c(=O)[nH]c1=O)CCC2)C(=O)O ... 109
9. NC(Cn1cc(Br)c(=O)[nH]c1=O)C(=O)O (racemic) ... 35
10. CC1(C)Cc2c(n(C[C@H](N)C(=O)O)c(=O)[nH]c2=O)C1 ... 102
11. NC(Cn1ccc(=O)[nH]c1=O)C(=O)O (configuration not stated) ... 410

###

Entries and their Ki
Biological target: Glutamate receptor ionotropic, kainate 2 (Rattus norvegicus)
Sequence (P42260 whole entry): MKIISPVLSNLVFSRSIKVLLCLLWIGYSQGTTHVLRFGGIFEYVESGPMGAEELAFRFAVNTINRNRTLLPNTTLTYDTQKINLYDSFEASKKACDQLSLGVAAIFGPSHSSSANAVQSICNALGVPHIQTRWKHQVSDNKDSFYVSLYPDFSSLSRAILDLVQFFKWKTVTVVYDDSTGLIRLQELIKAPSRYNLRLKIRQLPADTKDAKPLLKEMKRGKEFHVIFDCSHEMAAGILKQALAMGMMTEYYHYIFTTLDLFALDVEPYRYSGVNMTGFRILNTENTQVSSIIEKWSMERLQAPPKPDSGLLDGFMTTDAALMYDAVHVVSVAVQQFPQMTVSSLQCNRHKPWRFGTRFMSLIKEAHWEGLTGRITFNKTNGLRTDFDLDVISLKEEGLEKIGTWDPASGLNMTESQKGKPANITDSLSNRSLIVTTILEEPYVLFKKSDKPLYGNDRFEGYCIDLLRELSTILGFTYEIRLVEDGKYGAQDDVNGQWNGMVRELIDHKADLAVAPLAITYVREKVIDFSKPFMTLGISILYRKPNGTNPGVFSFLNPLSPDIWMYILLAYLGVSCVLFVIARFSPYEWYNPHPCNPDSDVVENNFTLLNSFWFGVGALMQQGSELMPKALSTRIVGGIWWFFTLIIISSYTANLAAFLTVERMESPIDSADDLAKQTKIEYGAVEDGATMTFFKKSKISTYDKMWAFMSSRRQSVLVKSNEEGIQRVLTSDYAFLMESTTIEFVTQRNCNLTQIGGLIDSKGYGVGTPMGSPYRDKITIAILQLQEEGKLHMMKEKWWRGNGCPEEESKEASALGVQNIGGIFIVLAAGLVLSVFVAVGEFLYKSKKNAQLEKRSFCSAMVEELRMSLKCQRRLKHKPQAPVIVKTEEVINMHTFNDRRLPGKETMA
Experiment: Displacement of [3H]kainic acid from rat recombinant iGluR6(V,C,R) receptor expressed in Sf9 cells
VALUE KIND: Ki

1) Cc1onc(O)c1CC(N)C(=O)O (racemic) [(R,S)-AMPA] ... > 1000 µM
2) NC(Cn1cc(Br)c(=O)[nH]c1=O)C(=O)O (racemic) ... > 100 µM
3) N[C@@H](Cn1cc(F)c(=O)[nH]c1=O)C(=O)O ... > 100 µM
4) N[C@@H](Cn1cc(I)c(=O)[nH]c1=O)C(=O)O ... > 100 µM
5) NC(Cn1ccc(=O)[nH]c1=O)C(=O)O (centres undefined) ... > 1000 µM
6) CC1(C)Cc2c(n(C[C@H](N)C(=O)O)c(=O)[nH]c2=O)C1 ... > 1000 µM
7) N[C@@H](Cn1c2c(c(=O)[nH]c1=O)CSC2)C(=O)O ... > 1000 µM
8) N[C@@H](Cn1c(=O)[nH]c(=O)c2ccccc21)C(=O)O ... > 1000 µM
9) N[C@@H](CCn1c2c(c(=O)n(CC[C@H](N)C(=O)O)c1=O)CCC2)C(=O)O ... > 100 µM
10) N[C@@H](Cn1c(=O)[nH]c(=O)c2cocc21)C(=O)O ... > 1000 µM
11) N[C@@H](Cn1c(=O)[nH]c(=O)c2sccc21)C(=O)O ... > 1000 µM
12) N[C@@H](CCn1c2c(c(=O)[nH]c1=O)CCC2)C(=O)O ... > 1000 µM
13) N[C@@H](Cn1c2c(c(=O)[nH]c1=O)CCC2)C(=O)O ... > 1000 µM
14) N[C@@H](Cn1cc(Cl)c(=O)[nH]c1=O)C(=O)O ... > 100 µM

###

Target: Glutamate receptor 4 (Rattus norvegicus, UniProt P19493)
Sequence (P19493 whole entry): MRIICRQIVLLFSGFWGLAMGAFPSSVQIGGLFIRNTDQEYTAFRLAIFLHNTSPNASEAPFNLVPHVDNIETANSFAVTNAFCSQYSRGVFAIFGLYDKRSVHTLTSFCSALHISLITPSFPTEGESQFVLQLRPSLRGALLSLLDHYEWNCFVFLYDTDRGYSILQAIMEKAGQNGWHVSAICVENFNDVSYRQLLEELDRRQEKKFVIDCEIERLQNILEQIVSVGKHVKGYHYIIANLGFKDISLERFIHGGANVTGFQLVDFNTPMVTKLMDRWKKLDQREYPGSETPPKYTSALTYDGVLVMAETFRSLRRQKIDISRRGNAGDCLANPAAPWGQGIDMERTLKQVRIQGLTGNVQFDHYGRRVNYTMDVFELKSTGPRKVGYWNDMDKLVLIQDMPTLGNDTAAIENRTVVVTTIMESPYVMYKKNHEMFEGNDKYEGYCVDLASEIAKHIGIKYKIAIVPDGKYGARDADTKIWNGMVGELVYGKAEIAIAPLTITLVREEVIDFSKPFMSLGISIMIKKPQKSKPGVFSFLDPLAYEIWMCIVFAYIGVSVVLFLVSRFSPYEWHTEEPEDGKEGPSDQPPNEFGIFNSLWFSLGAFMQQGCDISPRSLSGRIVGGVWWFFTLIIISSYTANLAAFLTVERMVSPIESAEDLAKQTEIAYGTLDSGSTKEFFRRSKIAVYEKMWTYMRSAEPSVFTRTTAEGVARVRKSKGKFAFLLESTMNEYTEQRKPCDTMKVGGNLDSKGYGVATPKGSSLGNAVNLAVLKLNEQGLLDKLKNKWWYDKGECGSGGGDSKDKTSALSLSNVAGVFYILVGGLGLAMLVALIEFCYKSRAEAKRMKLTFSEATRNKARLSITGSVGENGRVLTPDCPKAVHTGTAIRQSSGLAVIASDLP
pKi: −log10 of the molar value.
VALUE KIND: pKi

1. N[C@@H](CCn1c2c(c(=O)[nH]c1=O)CCC2)C(=O)O ... < 4.00
2. N[C@H](Cn1c2c(c(=O)[nH]c1=O)CCC2)C(=O)O ... < 4.00
3. N[C@@H](Cn1c(=O)[nH]c(=O)c2cocc21)C(=O)O ... < 4.00

###

Target: Glutamate receptor 3 (Rattus norvegicus)
VALUE KIND: Ki (nM)

1) N[C@@H](Cn1c2c(c(=O)[nH]c1=O)CCC2)C(=O)O ... 1890
2) NC(Cn1cc(Br)c(=O)[nH]c1=O)C(=O)O (racemic) ... 434
3) CC1(C)Cc2c(n(C[C@H](N)C(=O)O)c(=O)[nH]c2=O)C1 ... 1510
4) N[C@@H](Cn1cc(Cl)c(=O)[nH]c1=O)C(=O)O ... 451

###

Catalogue of pKi readings, one per entry.
Target: Glutamate receptor 3 (Rattus norvegicus, UniProt P19492)
Sequence (P19492 whole entry): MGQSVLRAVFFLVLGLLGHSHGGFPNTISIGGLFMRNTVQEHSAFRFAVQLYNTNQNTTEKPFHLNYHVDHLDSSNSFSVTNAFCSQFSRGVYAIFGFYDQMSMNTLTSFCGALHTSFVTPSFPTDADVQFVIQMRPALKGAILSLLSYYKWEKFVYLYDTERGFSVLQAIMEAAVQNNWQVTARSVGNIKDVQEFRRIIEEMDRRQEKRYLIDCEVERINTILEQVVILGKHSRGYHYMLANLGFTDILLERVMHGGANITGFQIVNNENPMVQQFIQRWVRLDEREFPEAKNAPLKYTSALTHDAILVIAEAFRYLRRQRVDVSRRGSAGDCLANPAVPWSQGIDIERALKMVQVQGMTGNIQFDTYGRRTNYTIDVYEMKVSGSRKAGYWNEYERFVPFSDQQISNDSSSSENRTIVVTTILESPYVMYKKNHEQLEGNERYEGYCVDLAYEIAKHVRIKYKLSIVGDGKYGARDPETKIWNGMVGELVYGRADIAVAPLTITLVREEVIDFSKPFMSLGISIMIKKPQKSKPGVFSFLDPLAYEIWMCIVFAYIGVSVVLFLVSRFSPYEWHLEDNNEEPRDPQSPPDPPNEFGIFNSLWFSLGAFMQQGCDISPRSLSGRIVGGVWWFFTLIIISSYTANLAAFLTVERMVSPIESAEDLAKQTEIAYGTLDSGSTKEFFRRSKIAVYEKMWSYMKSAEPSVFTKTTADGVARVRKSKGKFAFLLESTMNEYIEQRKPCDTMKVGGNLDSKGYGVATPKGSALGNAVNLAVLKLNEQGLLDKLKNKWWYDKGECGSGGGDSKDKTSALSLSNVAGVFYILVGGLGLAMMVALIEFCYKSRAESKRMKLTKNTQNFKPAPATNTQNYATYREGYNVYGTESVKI
Experiment: biochemical
pKi: −log10 of the molar value.
VALUE KIND: pKi

1. N[C@@H](Cn1c(=O)[nH]c(=O)c2cocc21)C(=O)O ... < 4.00
2. N[C@@H](CCn1c2c(c(=O)n(CC[C@H](N)C(=O)O)c1=O)CCC2)C(=O)O ... < 4.00
3. N[C@@H](CCn1c2c(c(=O)[nH]c1=O)CCC2)C(=O)O ... < 4.00
